# experimental protocol: Nrf2 qHTS screen for inhibitors: Nrf2 A549 ARE-Fluc Confirmation Assay for Hit Validation; further: potency means the concentration at half of the fitted maximal effect; nearly all actives have a fitted effect of over 65% in size
# measurement setup: A549 ARE-firefly luciferase reporter, luminescence; series mostly up to 46.1 µM
Hit rate of the full screen: of about 1,400 compounds, about 1,000 (71%) were called active. Another 12% or so got no clear call; they are omitted. So high a share suggests a set chosen from earlier hits. Only a sample is shown.
observation type: Potency

// sample O=C(CSc1nnc2c(n1)[nH]c1ccccc12)NC1CCCCC1 , its Potency was 2.31 µM (active)

# Potency (compound: CCCOc1ccc(Cc2c(Cl)nc(SC)nc2NC)cc1 ) is 6.51 µM (active)

// Potency lookup, compound = CC(C)(C)c1ccc(Oc2ccc(N)cc2)cc1 , result: 5.17 µM (active)

Short answer for O=C(Nc1ccncc1)c1c(F)cccc1F : Potency was 10.3 µM (active)

The compound identified as O=C(CN1C(=O)c2ccccc2S1(=O)=O)N1CCc2ccccc21 registered its Potency at 3.66 µM (active)

Note to self: Potency recorded for CCC(C)N1C(=O)S/C(=C/c2ccc(Sc3nc4ccccc4[nH]3)o2)C1=O (centres undefined) was 20.6 µM (active)

compound c1ccc(C(=NNc2nc3ccccc3s2)c2ccccn2)cc1 , Potency observed: 11.6 µM (active)

// field: Potency; key: CN(Cc1cccnc1)C(=O)c1cc(COc2ccc3ncccc3c2)on1 ; value = 5.8 µM (active)

In plain terms, CCCCCCCCn1c2c(c(=N)c3c1CCC3)CCCC2 has a documented Potency of 6.51 µM (active)
